Parameter self-splicing fitness (ln): see the listing below.
Test summary: self-splicing fitness, log relative to wild type (ln ratio); higher = more splicing; Tetrahymena group I intron in knt gene, E. coli kanamycin selection, DiMSum; sequences stand for … in CUCUCU…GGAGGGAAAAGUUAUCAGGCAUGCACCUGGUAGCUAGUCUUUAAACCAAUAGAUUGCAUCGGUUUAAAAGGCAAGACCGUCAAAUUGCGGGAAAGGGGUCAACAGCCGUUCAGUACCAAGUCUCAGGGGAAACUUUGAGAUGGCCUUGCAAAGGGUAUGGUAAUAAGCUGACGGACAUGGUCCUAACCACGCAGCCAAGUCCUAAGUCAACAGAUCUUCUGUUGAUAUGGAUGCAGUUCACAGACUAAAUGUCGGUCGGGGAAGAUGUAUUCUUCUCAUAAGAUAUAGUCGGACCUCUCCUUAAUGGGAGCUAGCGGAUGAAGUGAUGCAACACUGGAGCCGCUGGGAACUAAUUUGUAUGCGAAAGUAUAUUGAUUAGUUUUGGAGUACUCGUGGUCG;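 note: selection with 25 µg/mL kanamycin versus none on LB agar overnight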
Experimental context: 30 °C
Number only, please.

> print(dat)
        sequence.string  numeric.result
1  CAAAAGCAAUAUUACGGAUA           -3.27

Returns the measured self-splicing fitness (ln) for the input sequence. Input: ACUUAGCAAUAUUACGCAGC
-1.98

Check GAUAAGCAAUAUUACGGCGC too.
0.0448

Request: CUUUAGCAAUAUUACGUCCA
-3.2

Ok, now CAAGAGCAAUAUUACGUCGC
-4.54

Entry GAUAAGCAAUAUUACGGGCA please
-1.65

GUCGAGCAAUAUUACGGACU ?
-3.29

Record: UUCAAGCAAUAUUACGUCAG
-3.43

Would you mind doing UAUGAGCAAUAUUACGUCUA as well?
-0.497

----------
The following sequences are shown together with reported self-splicing fitness (ln) values.
Test summary: self-splicing fitness, log relative to wild type (ln ratio); higher = more splicing; Tetrahymena group I intron in knt gene, E. coli kanamycin selection, DiMSum; sequences stand for … in CUCUCU…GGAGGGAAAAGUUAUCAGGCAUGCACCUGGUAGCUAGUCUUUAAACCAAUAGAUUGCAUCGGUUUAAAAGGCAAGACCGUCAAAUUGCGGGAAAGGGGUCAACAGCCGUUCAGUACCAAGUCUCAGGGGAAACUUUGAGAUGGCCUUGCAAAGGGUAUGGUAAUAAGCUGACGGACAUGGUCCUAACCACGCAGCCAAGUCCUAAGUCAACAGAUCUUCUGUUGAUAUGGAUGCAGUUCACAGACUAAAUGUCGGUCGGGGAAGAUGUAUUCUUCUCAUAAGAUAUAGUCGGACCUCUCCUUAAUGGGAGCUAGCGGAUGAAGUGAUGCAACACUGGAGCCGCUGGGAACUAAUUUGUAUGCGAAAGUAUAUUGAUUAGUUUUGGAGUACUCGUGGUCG
Experimental context: 30 °C
Reply briefly: the number, and no unit.

In the examples that follow, each entry is paired with its recorded self-splicing fitness (ln).
> print(dat)
        sequence.string  numeric.result
1  CAAGAGCAAUAUUACGUUAG           -1.97
2  AAGCAGCAAUAUUACGUUCG           -1.98
3  UCAGAGCAAUAUUACGGUCU           -1.95

Then this sequence:
Query: self-splicing fitness (ln); subject: CGCGAGCAAUAUUACGCUGA
-2.03

----------
Test summary: self-splicing fitness, log relative to wild type (ln ratio); higher = more splicing; Tetrahymena group I intron in knt gene, E. coli kanamycin selection, DiMSum; sequences stand for … in CUCUCU…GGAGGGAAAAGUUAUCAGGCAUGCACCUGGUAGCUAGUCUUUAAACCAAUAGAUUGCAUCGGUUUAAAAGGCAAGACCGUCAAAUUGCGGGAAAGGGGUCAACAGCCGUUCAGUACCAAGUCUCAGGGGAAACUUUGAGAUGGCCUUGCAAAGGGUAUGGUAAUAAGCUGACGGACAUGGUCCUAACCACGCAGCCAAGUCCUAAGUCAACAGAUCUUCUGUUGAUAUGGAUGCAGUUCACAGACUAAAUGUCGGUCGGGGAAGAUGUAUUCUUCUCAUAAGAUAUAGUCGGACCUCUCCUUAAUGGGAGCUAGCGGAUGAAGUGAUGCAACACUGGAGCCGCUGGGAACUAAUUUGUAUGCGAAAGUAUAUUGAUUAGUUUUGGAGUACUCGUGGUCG
Experimental context: 37 °C
// class assignment uses self-splicing fitness (ln) with these ranges: low bracket = under -2, middle bracket = from -2 up to -0.8, high bracket = -0.8 and over

> print(dat)
        sequence.string     group.label
1  CCUUAGCAAUAUUACGUAAA  middle bracket
2  UAUUAGCAAUAUUACGGUUU     low bracket
3  GCAAAGCAAUAUUACGACAC    high bracket

Hi, small favor: classify UGUCAGCAAUAUUACGGGGA by its self-splicing fitness (ln) when you get a moment.
high bracket

Follow-up item: GUACAGCAAUAUUACGACUU
high bracket

Next: UCACAGCAAUAUUACGUAUG
middle bracket

Queued: GCCUAGCAAUAUUACGGUGC
middle bracket

How about UGGCAGCAAUAUUACGUAGC ?
low bracket

----------
Test summary: self-splicing fitness, log relative to wild type (ln ratio); higher = more splicing; Tetrahymena group I intron in knt gene, E. coli kanamycin selection, DiMSum; sequences stand for … in CUCUCU…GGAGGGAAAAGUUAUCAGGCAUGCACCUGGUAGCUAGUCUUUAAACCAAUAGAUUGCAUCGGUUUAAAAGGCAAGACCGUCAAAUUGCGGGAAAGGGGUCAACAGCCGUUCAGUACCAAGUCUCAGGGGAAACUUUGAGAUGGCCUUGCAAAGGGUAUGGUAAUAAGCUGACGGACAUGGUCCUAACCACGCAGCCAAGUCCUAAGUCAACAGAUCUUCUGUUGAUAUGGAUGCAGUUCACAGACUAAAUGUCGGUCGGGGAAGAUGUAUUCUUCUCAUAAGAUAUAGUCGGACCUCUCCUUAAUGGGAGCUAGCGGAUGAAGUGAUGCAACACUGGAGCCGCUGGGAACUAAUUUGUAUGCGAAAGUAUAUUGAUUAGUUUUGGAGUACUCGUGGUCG
Experimental context: 37 °C
Assign MET whenever self-splicing fitness (ln) does not fall below -1; assign NOT MET whenever it does.

Check the entry UAACAGCAAUAUUACGUCGG : does self-splicing fitness (ln) equal or exceed -1?
MET

And ACCCAGCAAUAUUACGUGAA ?
MET

Query CAUUAGCAAUAUUACGCAGA next
NOT MET

For GAUAAGCAAUAUUACGACCU then?
MET

Same for UGACAGCAAUAUUACGCGCA
MET

Then ACUAAGCAAUAUUACGGAAA ?
NOT MET

Repeat with ACAAAGCAAUAUUACGGUCG
MET

What do you have for ACUGAGCAAUAUUACGACUU ?
MET

# repeat for AGGUAGCAAUAUUACGUGUA
NOT MET

Same question, UCCGAGCAAUAUUACGCGAG this time
NOT MET

Now give it for GUAAAGCAAUAUUACGUCGG too.
NOT MET

----------
Test summary: self-splicing fitness, log relative to wild type (ln ratio); higher = more splicing; Tetrahymena group I intron in knt gene, E. coli kanamycin selection, DiMSum; sequences stand for … in CUCUCU…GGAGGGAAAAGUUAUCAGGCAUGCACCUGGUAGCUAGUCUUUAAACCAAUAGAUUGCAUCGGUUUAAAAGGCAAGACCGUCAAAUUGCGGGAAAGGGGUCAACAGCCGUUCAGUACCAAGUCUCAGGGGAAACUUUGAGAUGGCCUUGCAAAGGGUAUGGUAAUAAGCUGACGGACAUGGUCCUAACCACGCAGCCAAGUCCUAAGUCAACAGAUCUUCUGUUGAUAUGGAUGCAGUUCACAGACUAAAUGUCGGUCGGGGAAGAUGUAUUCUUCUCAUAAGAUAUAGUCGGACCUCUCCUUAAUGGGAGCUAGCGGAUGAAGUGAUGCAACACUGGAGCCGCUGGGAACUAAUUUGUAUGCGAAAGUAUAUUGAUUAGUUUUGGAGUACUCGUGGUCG
Experimental context: 30 °C
Examples of sequences with documented self-splicing fitness (ln) follow.

Solved entries:
> print(dat)
        sequence.string  result
1  GACAAGCAAUAUUACGAGUU    -3.7
2  GUGGAGCAAUAUUACGACCU   -1.22
3  GUGCAGCAAUAUUACGGUGG   -1.63
4  CCUAAGCAAUAUUACGUCUA    -3.9
5  AAGUAGCAAUAUUACGAGGC   -3.44

// returns reported self-splicing fitness (ln) for input CUUAAGCAAUAUUACGACUA
-1.35

Same lookup for AGGUAGCAAUAUUACGCGAC , please.
-2.97

// repeat for CAGCAGCAAUAUUACGCGAC and report
-2.71
